- target_or_system: JAK3 (Homo sapiens, UniProt P52333)
- Sequence (P52333 whole entry, species assumed): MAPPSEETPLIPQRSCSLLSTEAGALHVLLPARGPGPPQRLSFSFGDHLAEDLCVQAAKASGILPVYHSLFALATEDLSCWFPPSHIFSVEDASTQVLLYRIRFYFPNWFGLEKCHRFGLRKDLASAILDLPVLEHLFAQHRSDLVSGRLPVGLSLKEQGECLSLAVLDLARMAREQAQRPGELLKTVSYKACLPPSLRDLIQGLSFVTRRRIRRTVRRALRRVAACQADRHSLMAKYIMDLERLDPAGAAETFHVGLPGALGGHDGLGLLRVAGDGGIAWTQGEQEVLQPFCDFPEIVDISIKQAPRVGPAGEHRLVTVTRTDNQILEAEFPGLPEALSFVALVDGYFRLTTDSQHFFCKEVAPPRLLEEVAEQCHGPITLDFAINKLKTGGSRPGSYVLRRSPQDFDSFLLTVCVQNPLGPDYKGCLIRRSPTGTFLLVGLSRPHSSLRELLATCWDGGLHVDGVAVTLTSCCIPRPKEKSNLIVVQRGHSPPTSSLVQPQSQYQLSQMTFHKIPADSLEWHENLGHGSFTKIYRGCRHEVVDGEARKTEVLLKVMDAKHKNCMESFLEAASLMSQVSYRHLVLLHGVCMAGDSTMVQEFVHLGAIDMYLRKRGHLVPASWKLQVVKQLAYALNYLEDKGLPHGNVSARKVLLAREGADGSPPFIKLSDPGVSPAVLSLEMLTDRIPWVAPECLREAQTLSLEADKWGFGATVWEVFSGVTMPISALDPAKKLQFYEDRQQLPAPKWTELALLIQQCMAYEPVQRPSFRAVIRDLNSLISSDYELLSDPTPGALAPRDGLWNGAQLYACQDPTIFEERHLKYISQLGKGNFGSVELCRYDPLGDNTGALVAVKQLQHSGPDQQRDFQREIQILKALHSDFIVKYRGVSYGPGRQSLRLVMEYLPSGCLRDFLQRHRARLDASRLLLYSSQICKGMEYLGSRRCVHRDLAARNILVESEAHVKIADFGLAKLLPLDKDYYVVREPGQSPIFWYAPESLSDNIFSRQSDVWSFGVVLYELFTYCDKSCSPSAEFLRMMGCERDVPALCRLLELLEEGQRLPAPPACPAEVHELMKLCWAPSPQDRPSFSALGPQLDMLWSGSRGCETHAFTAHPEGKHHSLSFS
- method_notes: JAK3 inhibition assay (radiometric 33P filter assay)
- Assay type: biochemical
- condition_description: 1 μM poly(Glu)4Tyr, 5 μM ATP, 1 nM JAK3, 25° C.; read-out: JAK3 inhibition data (Ki)
assay_endpoint: Ki

Can you share its Ki? I mean this compound: `CC(=O)N1[C@H](C)CN(c2cc(-n3nc(Nc4ccc(N(C)C(=O)OC(C)C)cc4)nc3N)ncn2)C[C@@H]1C` < 0.05 µM

Can you share its Ki? I mean this compound: `Nc1nc(Nc2ccc(N3CCOCC3)cc2)nn1-c1ccnc(N2CCCOCC2)c1` 0.05 to 0.5 µM

Can you share its Ki? I mean this compound: `CC(=O)N1[C@H](C)CN(c2cc(-n3nc(Nc4ccc(N5CCN(C(=O)OC(C)C)CC5)cc4)nc3N)ncn2)C[C@@H]1C` < 0.05 µM

Can you share its Ki? I mean this compound: `CCCCS(=O)(=O)N1CCCN(c2cc(-n3nc(Nc4ccc(N5CCN(C(=O)OCC)CC5)cc4)nc3N)ccn2)CC1` 0.05 to 0.5 µM

Can you share its Ki? I mean this compound: `Nc1nc(Nc2ccc(N3CCOCC3)cc2)nn1-c1ccnc(N2CCCCCC2)c1` < 0.05 µM

Can you share its Ki? I mean this compound: `Nc1nc(Nc2ccc(N3CCOCC3)cc2)nn1-c1cc(N2CCN3C(=O)CC[C@@H]3C2)ncn1` < 0.05 µM

Can you share its Ki? I mean this compound: `CCCOC(=O)N1CCN(c2ccc(Nc3nc(N)n(-c4cc(N5CCCN(C(C)=O)CC5)ncn4)n3)cc2)CC1` < 0.05 µM

Can you share its Ki? I mean this compound: `CC(=O)Nc1ccc(Nc2nc(N)n(-c3cc(N4C[C@@H](C)N(C(C)=O)[C@@H](C)C4)ncn3)n2)cc1` < 0.05 µM

Can you share its Ki? I mean this compound: `CCCOC(=O)Nc1ccc(Nc2nc(N)n(-c3cc(N4CCCN(C(C)=O)CC4)ncn3)n2)cc1` < 0.05 µM

Can you share its Ki? I mean this compound: `CC(=O)N1[C@H](C)CN(c2cc(-n3nc(Nc4ccc(NC(=O)CC(C)C)cc4)nc3N)ccn2)C[C@@H]1C` < 0.05 µM

Can you share its Ki? I mean this compound: `CC(=O)N1CCCN(c2cc(-n3nc(Nc4ccc(N5CCN(C(=O)OCC(C)C)CC5)cc4)nc3N)ncn2)CC1` < 0.05 µM

Can you share its Ki? I mean this compound: `CCCOC(=O)N1CCCN(c2cc(-n3nc(Nc4ccc(N5CCN(C(=O)OCC)CC5)cc4)nc3N)ccn2)CC1` 0.05 to 0.5 µM

Can you share its Ki? I mean this compound: `CC(=O)N1[C@H](C)CN(c2cc(-n3nc(Nc4ccc(NC(=O)OC(C)C)cc4)nc3N)ncn2)C[C@@H]1C` < 0.05 µM

Can you share its Ki? I mean this compound: `CC(=O)N1CCCN(c2cc(-n3nc(Nc4ccc(N5CCN(C(=O)Oc6ccc(C)cc6)CC5)cc4)nc3N)ncn2)CC1` < 0.05 µM

Can you share its Ki? I mean this compound: `CNc1ccc(Nc2nc(N)n(-c3cc(N4C[C@@H](C)N(C(C)=O)[C@@H](C)C4)ncn3)n2)cc1` < 0.05 µM

Can you share its Ki? I mean this compound: `CC(=O)N1[C@H](C)CN(c2cc(-n3nc(Nc4ccc(N5CCOCC5)cc4)nc3N)ccn2)C[C@@H]1C` < 0.05 µM

Can you share its Ki? I mean this compound: `CC(=O)N1[C@H](C)CN(c2cc(-n3nc(Nc4ccc(NC(=O)OC(C)(C)C)cc4)nc3N)ccn2)C[C@@H]1C` < 0.05 µM

Can you share its Ki? I mean this compound: `CC(=O)N1CCCN(c2cc(-n3nc(Nc4ccc(NC(=O)O[C@H]5C[C@H](C)CC[C@H]5C(C)C)cc4)nc3N)ncn2)CC1` 0.05 to 0.5 µM

Can you share its Ki? I mean this compound: `Nc1nc(Nc2ccc(N3CCOCC3)cc2)nn1-c1cc(N2CCNC(=O)CC2)ncn1` < 0.05 µM

Can you share its Ki? I mean this compound: `COC(=O)N(C)c1ccc(Nc2nc(N)n(-c3cc(N4CCCN(C(C)=O)CC4)ncn3)n2)cc1` < 0.05 µM

Can you share its Ki? I mean this compound: `CC(=O)N1[C@H](C)CN(c2cc(-n3nc(Nc4ccc(NC(=O)Nc5ccc(C(F)(F)F)cc5)cc4)nc3N)ncn2)C[C@@H]1C` < 0.05 µM

Can you share its Ki? I mean this compound: `CCOC(=O)N1CCCN(c2cc(-n3nc(Nc4ccc(N5CCN(C(=O)OC(C)C)CC5)cc4)nc3N)ccn2)CC1` 0.05 to 0.5 µM

Can you share its Ki? I mean this compound: `CC(=O)N1[C@H](C)CN(c2cc(-n3nc(Nc4ccc(NC(=O)OC(C)C)cc4)nc3N)ccn2)C[C@@H]1C` < 0.05 µM

Can you share its Ki? I mean this compound: `CC(=O)N1CCCN(c2cc(-n3nc(Nc4ccc(N5CCN(C(=O)OCC(C)(C)C)CC5)cc4)nc3N)ncn2)CC1` < 0.05 µM

Can you share its Ki? I mean this compound: `CC(=O)N1CCCN(c2cc(-n3nc(Nc4ccc(NC(=O)c5ccncc5)cc4)nc3N)ncn2)CC1` < 0.05 µM

Can you share its Ki? I mean this compound: CCCC1CCC(C(=O)Nc2ccc(Nc3nc(N)n(-c4cc(N5CCCN(C(C)=O)CC5)ncn4)n3)cc2)CC1 (stereo not shown) 0.05 to 0.5 µM

Can you share its Ki? I mean this compound: `CC(=O)N1CCCN(c2cc(-n3nc(Nc4ccc(NC(=O)OC(C)(C)C)cc4)nc3N)ncn2)CC1` < 0.05 µM

Can you share its Ki? I mean this compound: `CC(=O)N1[C@H](C)CN(c2cc(-n3nc(Nc4ccc(N5CCNCC5)cc4)nc3N)ncn2)C[C@@H]1C` < 0.05 µM

* * *

Exercise: state measured pKi for each of the molecules provided.
- target_or_system: JAK-2 enzyme (Homo sapiens, UniProt O60674)
- Sequence (O60674 whole entry, species assumed): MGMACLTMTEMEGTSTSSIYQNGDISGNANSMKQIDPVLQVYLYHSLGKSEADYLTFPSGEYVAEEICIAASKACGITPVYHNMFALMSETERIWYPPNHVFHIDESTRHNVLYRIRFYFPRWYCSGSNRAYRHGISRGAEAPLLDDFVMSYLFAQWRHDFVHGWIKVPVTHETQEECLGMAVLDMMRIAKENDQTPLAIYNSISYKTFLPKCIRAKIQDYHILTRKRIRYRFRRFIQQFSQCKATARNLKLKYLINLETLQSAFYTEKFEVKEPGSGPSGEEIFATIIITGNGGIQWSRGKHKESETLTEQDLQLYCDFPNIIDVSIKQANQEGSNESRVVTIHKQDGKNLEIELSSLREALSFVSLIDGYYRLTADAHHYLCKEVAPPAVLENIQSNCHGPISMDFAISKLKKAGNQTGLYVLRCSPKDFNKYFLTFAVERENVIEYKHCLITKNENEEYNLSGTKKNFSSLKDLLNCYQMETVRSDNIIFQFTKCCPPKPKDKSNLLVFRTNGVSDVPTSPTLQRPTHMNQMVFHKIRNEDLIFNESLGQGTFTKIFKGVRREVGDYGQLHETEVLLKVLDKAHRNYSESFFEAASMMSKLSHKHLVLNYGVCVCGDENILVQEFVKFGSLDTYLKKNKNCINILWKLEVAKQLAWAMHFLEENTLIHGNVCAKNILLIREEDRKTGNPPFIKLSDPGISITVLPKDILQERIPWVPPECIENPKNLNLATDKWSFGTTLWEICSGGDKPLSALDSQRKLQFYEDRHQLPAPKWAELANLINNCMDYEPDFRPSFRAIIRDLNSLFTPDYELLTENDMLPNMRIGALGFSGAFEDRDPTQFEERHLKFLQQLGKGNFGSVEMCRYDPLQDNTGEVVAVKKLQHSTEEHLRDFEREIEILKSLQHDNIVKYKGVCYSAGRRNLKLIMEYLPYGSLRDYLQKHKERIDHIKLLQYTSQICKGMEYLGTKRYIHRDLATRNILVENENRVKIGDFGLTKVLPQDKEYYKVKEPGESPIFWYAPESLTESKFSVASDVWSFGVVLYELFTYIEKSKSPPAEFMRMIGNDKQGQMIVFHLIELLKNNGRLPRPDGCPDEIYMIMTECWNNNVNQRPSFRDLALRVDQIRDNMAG
- method_notes: JAK2 inhibition assay (radiometric 33P filter assay)
- Format: biochemical
- condition_description: 15 μM poly(Glu)4Tyr, 12 μM ATP; read-out: JAK2 inhibition data (Ki)
pKi: −log10 of the molar value.

Form: Entry = `CC(=O)N1CCCN(c2cc(-n3nc(Nc4ccc(N5CCN(C(=O)OC(C)C)CC5)cc4)nc3N)ncn2)CC1` | System = JAK-2 enzyme (Homo sapiens, UniProt O60674) | pKi = ____ > 7.30

Form: Entry = `CCOC(=O)N1CCN(c2ccc(Nc3nc(N)n(-c4cc(N5CCCN(S(=O)(=O)CC)CC5)ncn4)n3)cc2)CC1` | System = JAK-2 enzyme (Homo sapiens, UniProt O60674) | pKi = ____ 6.30 to 7.30

Form: Entry = `CC(=O)N1CCCN(c2cc(-n3nc(Nc4ccc(NC(=O)C5CCOCC5)cc4)nc3N)ncn2)CC1` | System = JAK-2 enzyme (Homo sapiens, UniProt O60674) | pKi = ____ > 7.30

Form: Entry = `CCCNC(=O)N1CCN(c2ccc(Nc3nc(N)n(-c4cc(N5C[C@@H](C)N(C(C)=O)[C@@H](C)C5)ncn4)n3)cc2)CC1` | System = JAK-2 enzyme (Homo sapiens, UniProt O60674) | pKi = ____ > 7.30

Form: Entry = `CCS(=O)(=O)N1CCN(c2ccc(Nc3nc(N)n(-c4ccnc(N5CCCN(C(=O)OC)CC5)c4)n3)cc2)CC1` | System = JAK-2 enzyme (Homo sapiens, UniProt O60674) | pKi = ____ 6.30 to 7.30

Form: Entry = `CC(=O)N1[C@H](C)CN(c2cc(-n3nc(Nc4ccc(NC(=O)O[C@H]5C[C@H](C)CC[C@H]5C(C)C)cc4)nc3N)ncn2)C[C@@H]1C` | System = JAK-2 enzyme (Homo sapiens, UniProt O60674) | pKi = ____ > 7.30

Form: Entry = `CC(=O)N1CCCN(c2cc(-n3nc(Nc4ccc(NC(=O)c5cccnc5)cc4)nc3N)ncn2)CC1` | System = JAK-2 enzyme (Homo sapiens, UniProt O60674) | pKi = ____ > 7.30

Form: Entry = `CC(=O)N1[C@H](C)CN(c2cc(-n3nc(Nc4ccc(NC(=O)OCC(C)(C)C)cc4)nc3N)ncn2)C[C@@H]1C` | System = JAK-2 enzyme (Homo sapiens, UniProt O60674) | pKi = ____ > 7.30

Form: Entry = `CC(=O)N1[C@H](C)CN(c2cc(-n3nc(Nc4ccc(NC(=O)NC(C)(C)C)cc4)nc3N)ncn2)C[C@@H]1C` | System = JAK-2 enzyme (Homo sapiens, UniProt O60674) | pKi = ____ > 7.30

Form: Entry = `CC(=O)N1CCCN(c2cc(-n3nc(Nc4ccc(N5CCN(C(=O)OCC(C)C)CC5)cc4)nc3N)ncn2)CC1` | System = JAK-2 enzyme (Homo sapiens, UniProt O60674) | pKi = ____ > 7.30

Form: Entry = `CC(=O)N1[C@H](C)CN(c2cc(-n3nc(Nc4ccc(N5CCNCC5)cc4)nc3N)ncn2)C[C@@H]1C` | System = JAK-2 enzyme (Homo sapiens, UniProt O60674) | pKi = ____ > 7.30

Form: Entry = `CCOC(=O)CCNC(=O)N1CCN(c2ccc(Nc3nc(N)n(-c4cc(N5C[C@@H](C)N(C(C)=O)[C@@H](C)C5)ncn4)n3)cc2)CC1` | System = JAK-2 enzyme (Homo sapiens, UniProt O60674) | pKi = ____ > 7.30

Form: Entry = `CC(C)(C)OC(=O)N1CCN(c2ccc(Nc3nc(N)n(-c4cc(N5CCCN(C(=O)CC#N)CC5)ncn4)n3)cc2)CC1` | System = JAK-2 enzyme (Homo sapiens, UniProt O60674) | pKi = ____ > 7.30

Form: Entry = `CCOC(=O)N1CCN(c2ccc(Nc3nc(N)n(-c4ccnc(N5C[C@@H](C)N(C(C)=O)[C@@H](C)C5)c4)n3)cc2)CC1` | System = JAK-2 enzyme (Homo sapiens, UniProt O60674) | pKi = ____ > 7.30

The reported numbers originate from patent US7329652B2.
